# growth listing for each entry below
tested on: NCI-H522 lung; experiment: NCI-60 one-dose screen, 48 h (100 = growth as untreated, 0 = no growth, -100 = all killed); settings: 10 µM unless noted
About 83,000 compounds went through this panel and 20% of them were active in at least one assay; those are over-represented in the sample as a whole.
Give just the number in %; leave the unit off.

Quick note, growth for CCCN(CCC)CC(O)COc1ccccc1C(=O)Nc1ccccc1 (stereo not given) landed at 55.8

Quick note, growth for CN1CCN(Cc2ccc(NC(=O)c3cccc(C#Cc4cnc(N)c5ncccc45)c3F)cc2C(F)(F)F)CC1 landed at -9.1

---

tested on: NCI-H322M lung; test: NCI-60 one-dose screen, 48 h (100 = growth as untreated, 0 = no growth, -100 = all killed); conditions: 10 µM unless noted
About 83,000 compounds went through this panel and 20% of them were active in at least one assay; those are over-represented in the sample as a whole.
# growth listing for each entry below
Give just the number in %; leave the unit off.

Recorded growth, per entry:
Quick note, growth for CCNS(=O)(=O)c1ccc(C)cc1 landed at 102

Quick note, growth for Nc1nonc1-c1nc2ccccc2n1Cc1ccc(F)cc1 landed at 69.8

Quick note, growth for COc1c(B(O)O)cccc1-c1nc2ccc3[nH]ncc3c2c2c1CCCC2 landed at 16

Consider the record given below.
Quick note, growth for CCOC(=O)C(Nc1ccccc1)C(=O)OCC landed at 88.1

---

Tested on: UACC-62 melanoma
Assay: NCI-60 one-dose screen, 48 h (100 = growth as untreated, 0 = no growth, -100 = all killed)
Conditions: 10 µM unless noted
Method: Growth inhibition of the UACC-62 human tumor cell line is measured as a screen for anti-cancer activity. Cells are grown in 96 well plates and exposed to the test compound for 48 hours. Compounds are tested at a single concentration, which is 10^-5 M for most compounds. The reported endpoint is percent growth (GI% or GIPRCNT), where numbers from 0 - 100% represent growth inhibition, and numbers from -100% - 0 represent cell death. For example, a value of 40 represents 60% growth inhibition. […]
Compounds without any hit were thinned out: in the full panel of roughly 83,000, 20% have a hit.
# growth listing for each entry below
Give just the number in %; leave the unit off.

Quick note, growth for Nc1nc2ccc([C@@H]3Nc4ccc5[nH]ncc5c4[C@H]4[C@H]5CCC(C5)[C@H]43)cc2s1 landed at -88.6

Quick note, growth for CN1CCN(Cc2ccc(NC(=O)c3cncc(C#Cc4ncc5ccccn45)c3)cc2C(F)(F)F)CC1 landed at 51.7

---
Quick note, growth for C=C(C)c1ccc(/C=N/NC(N)=S)cc1 landed at 88.9

Quick note, growth for CCOc1ccc([C@@H]2[C@@H](Oc3ccccc3)C(=O)N2c2cc(OC)c(OC)c(OC)c2)cc1 landed at 26

Quick note, growth for Cc1ccc2oc(=O)cc(-c3nc4ccc([N+](=O)[O-])cc4[nH]3)c2c1 landed at 39.5

---

test system: NCI-H522 lung; assay: NCI-60 one-dose screen, 48 h (100 = growth as untreated, 0 = no growth, -100 = all killed); conditions: 10 µM unless noted
Compounds without any hit were thinned out: in the full panel of roughly 83,000, 20% have a hit.
# growth listing for each entry below
Give just the number in %; leave the unit off.

Quick note, growth for O=C(Nc1ccc(Oc2ccc(Nc3nc4ccccc4s3)cc2)cc1)Nc1ccc(Cl)c(C(F)(F)F)c1 landed at -36.8

Quick note, growth for Oc1[nH]c2ccc(Cl)cc2c1/C=c1/ccc2c(c1)N=C(c1ccc(F)cc1)N=2 landed at 80.7

Quick note, growth for COc1cccc2nc(Nc3cccc(NC(=O)c4cc(N5CCOCC5)cc(C(F)(F)F)c4)c3)ccc12 landed at 81.3

Quick note, growth for O=C(/C=C/c1ccccc1)C(Br)C(Br)c1ccccc1 (stereo not given) landed at -78.3

---
Quick note, growth for Clc1cn2cc(-c3ccc(Cl)c(Cl)c3Cl)nc2s1 landed at 91.4
